System: A549 NSCLC
PROTOCOL: NCI tumour cell line growth inhibition, 48 h
REPORTED_ENDPOINT: TGI

Would you please look over these solved cases?
CC(C)[C@H](N)C(=O)N1CCC[C@H]1B(O)O : > 100 µM
Cn1c2ccccc2c2c(-c3ccccc3)cc3c(c21)C(=O)C=CC3=O : > 10 µM
C=C(C)C1=CCC[C@]2(C1)N=C(OC)[C@@H](C(C)C)N=C2OC : > 100 µM
Fc1ccc2c(c1)C1=NN(c3ccccc3)C(F)C1CO2 (centres undefined) : 23.9 µM
Cc1ccc(S(=O)(=O)N/N=C/c2c(O)ccc3ccccc23)cc1 : > 100 µM

## Input Could you share which TGI value was measured for Oc1c(C(Nc2cccc3cccnc23)c2ccccc2)ccc2cccnc12 (centres undefined) ?
## Output > 100 µM

## Input Could you share which TGI value was measured for C=C1C(=O)O[C@H]2[C@H]1CC/C(COC(=O)NCc1cn(C)c3ccccc13)=C\CC[C@@]1(C)O[C@@H]21 ?
## Output 7.14 µM

## Input Could you share which TGI value was measured for COc1cc(/C=C/C(=O)c2cccc(Nc3nc(Nc4ccccc4)nc(Nc4ccccc4)n3)c2)cc(OC)c1OC ?
## Output > 100 µM

## Input Could you share which TGI value was measured for Cn1cc(C(=O)NCCC(=N)N)cc1NC(=O)C1=[N+](C)C=C(NC(=O)c2cccc(C(=O)NC3=CC(C(=O)Nc4cc(C(=O)NCCC(=N)N)cn4C)=[N+](C)C3)c2)C1 ?
## Output > 100 µM

====

Entries and their TGI
Test system: SW-620 colon
PROTOCOL: NCI tumour cell line growth inhibition, 48 h

Would you please look over these solved cases?
O=c1[nH]c2cc([N+](=O)[O-])ccc2nc1/C(=N/Nc1ccccc1)C(O)c1ccccc1Cl (stereo not given) : > 100 µM
CCOc1ccccc1N1C(=O)C(=O)C(c2nc3ccccc3o2)C(=O)C1=O : > 100 µM
Cc1ccc(S(=O)(=O)N/N=C/c2c(O)ccc3ccccc23)cc1 : > 100 µM
CCOc1cc(NC(C)=O)ccc1C(=O)NN1C(=O)C(Cl)C1c1ccccc1 (stereo not given) : 59.6 µM

Now turn to the next compound.
## Input Could you share which TGI value was measured for Cc1ccc2c(c1)[nH]c(=S)n2/C=C1\C(=O)Oc2ccccc2C1=O ?
## Output > 100 µM

====

Test system: NCI-H226 lung
PROTOCOL: NCI tumour cell line growth inhibition, 48 h
Entries and their TGI

Would you please look over these solved cases?
CN1C(=Nc2ccccc2)SC1=Nc1ccccc1 : > 100 µM
Nc1ncnc2nc[nH]c12 : > 250 µM

Now turn to the next compound.
## Input Under NCI-H226 lung: TGI value of CCCCNc1nc(C#N)c(N)s1 ?
## Output > 100 µM

====

Tested on: K-562 leukemia
PROTOCOL: NCI tumour cell line growth inhibition, 48 h
REPORTED_ENDPOINT: TGI

O=C1Nc2ccccc2/C1=C/C(=O)c1coc2c1C(=O)c1ccccc1C2=O : > 100 µM

## Input Could you share which TGI value was measured for COC(=O)N/N=C(\Cc1ccccc1)CN(C)C ?
## Output > 100 µM

## Input Could you share which TGI value was measured for O=C(NC1=NCC(CN2CCN(c3ccccc3)CC2)O1)Nc1ccccc1 (stereo not given) ?
## Output > 100 µM

====

Tested on: NCI-H226 lung
PROTOCOL: NCI tumour cell line growth inhibition, 48 h
Entries and their TGI

Would you please look over these solved cases?
COc1ccc(Nc2nnc(-c3nsc4ccccc34)s2)cc1 : > 100 µM
O=C(O)CNC(=O)c1ccc(-c2ccccc2)cc1 : > 100 µM
COc1ccc(-c2c(C#N)c(N)n(C3OCC(OC(C)=O)C(OC(C)=O)C3OC(C)=O)c(=S)c2C#N)cc1 (stereo unspecified) : > 100 µM

## Input Could you share which TGI value was measured for COc1cc2c(cc1C)NC(=O)/C2=C/c1ccccn1 ?
## Output 4.86 µM

## Input Could you share which TGI value was measured for NC(=O)N/N=C(\CC1OC(=O)c2ccccc21)c1ccco1 (stereo unspecified) ?
## Output > 100 µM

====

Tested on: OVCAR-8 ovarian
PROTOCOL: NCI tumour cell line growth inhibition, 48 h
REPORTED_ENDPOINT: TGI (µM)
Number in µM, nothing else.

Would you please look over these solved cases?
C=CCNC1=C2C[C@@H](C)C[C@@H](OC)[C@H](OC(=O)CCN)[C@H](C)/C=C(\C)[C@@H](OC(N)=O)[C@H](OC)/C=C\C=C(/C)C(=O)NC(=CC1=O)C2=O : 18.4
O=C(CCCCCCCCC(=O)N/N=C\c1ccccc1O)N/N=C\c1ccccc1O : 5.8

Now turn to the next molecule.
## Input Under OVCAR-8 ovarian: TGI value of O=C1/C(=C/c2cccc(F)c2)CCCc2ccccc21 ?
## Output 29.3

====

Test system: OVCAR-8 ovarian
PROTOCOL: NCI tumour cell line growth inhibition, 48 h
REPORTED_ENDPOINT: GI50

C(#Cc1ccccc1C#Cc1cccs1)c1cccs1 : > 100 µM
COc1ccc(C(=O)OC2C(OC3C(O)COC(O[C@H]4C[C@H]5[C@@H]6CC=C7C[C@@H](O)CC[C@]7(C)[C@H]6CC[C@]5(C)[C@H]4[C@H](C)C(=O)CCC(C)C)C3OC(N)=O)OCC(O)C2O)cc1 (some centres not stated) : 3.14 µM
C=C(C)C(=O)O[C@H]1CC(=C)[C@@H]2C[C@H](O)[C@](O)(CCl)[C@@H]2[C@H]2OC(=O)C(=C)[C@@H]21 : 3.24 µM
COc1ccc(/C(COc2ccc3c(=O)cc(-c4ccccc4)oc3c2)=N\O)cc1 : 21.4 µM
Cc1cc(O)c(C(C)C)cc1S(=O)(=O)O (tested in a mixture with another compound) : 0.335 µM
CN(C)CCN1C(=O)c2ccccc2N(C)c2ccccc21 : > 100 µM

Now turn to the next compound.
## Input Could you share which GI50 value was measured for COC(=O)c1nc(-c2ccccc2)oc1S(=O)(=O)Cc1ccccc1 ?
## Output 12.1 µM

====

Entries and their TGI
System: MCF7 breast
PROTOCOL: NCI tumour cell line growth inhibition, 48 h
Number in µM, nothing else.

COc1cc(NC(C)CCCNC2CN3CCC2CC3)c2ncccc2c1 (stereo unspecified) : 3.58
COc1cc(OC(=O)c2ccccc2)cc2c1C(=O)C=CC2=O : 52
O=C(O)c1nc2cc(C(F)(F)F)ccc2nc1Nc1ccc(F)cc1 : 72.9

## Input Could you share which TGI value was measured for Cc1ccc(S(=O)(=O)n2cc(-c3cc(C(F)(F)F)ccn3)c3cc(Br)ccc32)cc1 ?
## Output 26

## Input Could you share which TGI value was measured for C=C1c2ccccc2C(=O)c2c1c1c(C(=O)OC)c(O)ccc1n2Cc1ccccc1 ?
## Output 0.763

====

Tested on: CAKI-1 renal
PROTOCOL: NCI tumour cell line growth inhibition, 48 h
REPORTED_ENDPOINT: TGI

NC1=C(NC(=O)Cc2ccc(F)cc2)C(=O)c2ccccc2C1=O : > 100 µM

## Input Could you share which TGI value was measured for O=C1CCC2C(O)c3cc4c(cc3C(c3ccc5c(c3)OCO5)N12)OCO4 (centres undefined) ?
## Output > 100 µM

## Input Could you share which TGI value was measured for C/C(CC(=O)Nc1ccc([N+](=O)[O-])cc1)=N\NC(N)=O ?
## Output > 100 µM

## Input Could you share which TGI value was measured for C=C1C(=O)O[C@H]2[C@H]1CC/C(COC(=O)NCc1cn(C)c3ccccc13)=C\CC[C@@]1(C)O[C@@H]21 ?
## Output 2.64 µM

## Input Could you share which TGI value was measured for CCOC(=O)NC(=O)c1cn(CCOC(=O)CCCCCCCCC(=O)OCCn2cc(C(=O)NC(=O)OCC)c(=O)[nH]c2=O)c(=O)[nH]c1=O ?
## Output > 100 µM

## Input Could you share which TGI value was measured for N#Cc1c(-c2ccccc2)cc(-c2ccccc2)n(C2OC(CO)C(O)C(O)C2O)c1=S (centres undefined) ?
## Output > 100 µM

## Input Could you share which TGI value was measured for O=C(O)CNC(=O)c1ccc(-c2ccccc2)cc1 ?
## Output > 100 µM

## Input Could you share which TGI value was measured for c1ccc2c(c1)cc(C1NCCc3[nH]cnc31)c1ccccc12 (centres undefined) ?
## Output > 100 µM

## Input Could you share which TGI value was measured for Cc1ccc(S(=O)(=O)N/N=C/c2c(O)ccc3ccccc23)cc1 ?
## Output 35.3 µM

## Input Could you share which TGI value was measured for Nc1ncnc2c1ncn2C=C=CCO ?
## Output > 100 µM

## Input Could you share which TGI value was measured for Cc1cc2c(cc1C)N(C(=O)CCl)CC(=O)N2 ?
## Output 3.52 µM

## Input Could you share which TGI value was measured for Clc1ccc(NCc2nnc(CCCCCCCCc3nnc(CNc4ccc(Cl)cc4)o3)o2)cc1 ?
## Output > 100 µM

## Input Could you share which TGI value was measured for Cn1cc2ccccc2c1-c1nc(F)nc(F)n1 ?
## Output > 100 µM

## Input Could you share which TGI value was measured for C=C1c2ccccc2C(=O)c2c1c1c(C(=O)OC)c(O)ccc1n2Cc1ccccc1 ?
## Output 1.71 µM

## Input Could you share which TGI value was measured for CP1(=O)CCCCC1 ?
## Output > 100 µM

## Input Could you share which TGI value was measured for CCOC(=O)/C(C#N)=C\c1ccc(N(CCC(=O)O)CCC(=O)O)c(I)c1 ?
## Output > 10 µM

## Input Could you share which TGI value was measured for CSc1nc(C#N)c(/N=C\N(C)C)n1C ?
## Output > 100 µM

## Input Could you share which TGI value was measured for O=C(CC(=O)N(C(=O)/C=C\c1ccccc1)c1ccc(Cl)cc1)N1N=C(c2ccccc2)C(N=Nc2cccc([N+](=O)[O-])c2)C1=O (centres undefined) ?
## Output > 100 µM

## Input Could you share which TGI value was measured for COc1ccc(Br)c(N/N=C2\CCCNC2=O)c1 ?
## Output 91.8 µM

## Input Could you share which TGI value was measured for CCOc1ccc(NC(=O)C(=O)CC(=O)c2sc(NNC(C)=O)nc2C)cc1 ?
## Output > 100 µM
